Values from patent US12479820B2

- study target: human LPA1 receptor (Homo sapiens, UniProt Q92633)
- Construct: TEV protease site; Gal4-VP16 transcription factor
- Sequence (Q92633 whole entry, the tested form may be a part): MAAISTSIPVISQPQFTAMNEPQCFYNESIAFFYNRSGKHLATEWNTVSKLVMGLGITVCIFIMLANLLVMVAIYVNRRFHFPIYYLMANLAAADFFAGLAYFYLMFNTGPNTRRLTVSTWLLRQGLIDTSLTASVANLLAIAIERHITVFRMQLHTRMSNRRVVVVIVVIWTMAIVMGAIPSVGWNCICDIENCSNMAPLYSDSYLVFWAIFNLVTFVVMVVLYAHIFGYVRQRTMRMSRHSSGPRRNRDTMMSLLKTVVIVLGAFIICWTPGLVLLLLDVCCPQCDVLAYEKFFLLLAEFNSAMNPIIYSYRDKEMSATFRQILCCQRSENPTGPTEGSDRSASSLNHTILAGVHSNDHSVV
- experimental protocol: Beta-arrestin recruitment assay to determine IC50 values for human LPAR1
- run parameters: Tango EDG2-bla U2OS cells, antagonist assay, LPA 18:1 500 nM final
property: pIC50
Remember, pIC50 is on a log scale: it is -log10 of the molar concentration.

COc1cc(Br)ncc1NC(=O)C1(c2ccccc2C(C)C)CN(S(N)(=O)=O)C1 | 8.70

Data request: For the compound COc1cc(Cl)ncc1NC(=O)C1(c2ccccc2C(C)C)CN(C(=O)Cc2cc(O)n[nH]2)C1 , what pIC50 is on record?
Data returned: 6.95

Data request: Repeat with COc1ccncc1NC(=O)C1(c2ccccc2C(C)C)CN(S(N)(=O)=O)C1
Data returned: 5.81

Data request: Repeat with CCOC(=O)CNC(=O)N1CC(C(=O)Nc2cnc(Cl)cc2OC)(c2ccccc2C(C)C)C1
Data returned: 7.74

---

Each record here notes measured IC50.
- study target: human LPA1 receptor (Homo sapiens, UniProt Q92633)
- Construct: TEV protease site; Gal4-VP16 transcription factor
- experimental protocol: Beta-arrestin recruitment assay to determine IC50 values for human LPAR1
- run parameters: Tango EDG2-bla U2OS cells, antagonist assay, LPA 18:1 500 nM final
Number only, in µM; omit the unit.

Consider the following illustrative entries.
COc1cc(Cl)ncc1NC(=O)C1(c2ccccc2C(C)C)CN(S(=O)(=O)NC2CC2)C1 | 0.022
COc1cc(Cl)ncc1NC(=O)C1(c2ncccc2C(C)C)CN(C(=O)NC2CC2)C1 | 0.018
COC(=O)c1cnc(N2CC(C(=O)Nc3cnc(Cl)cc3OC)(c3ccccc3C(C)C)C2)nc1 | 0.022

Next item in the queue.
Data request: // lookup IC50 | system=human LPA1 receptor (Homo sapiens, UniProt Q92633) | key= COc1cc(Cl)ncc1NC(=O)C1(c2ccccc2C(C)C)CN(S(=O)(=O)C2COC2)C1
Data returned: 0.034
